Molecular target: CXCR-4 transfected U87 cell line (U87.CXCR4) (Homo sapiens (Human))
Sequence (P61073 whole entry): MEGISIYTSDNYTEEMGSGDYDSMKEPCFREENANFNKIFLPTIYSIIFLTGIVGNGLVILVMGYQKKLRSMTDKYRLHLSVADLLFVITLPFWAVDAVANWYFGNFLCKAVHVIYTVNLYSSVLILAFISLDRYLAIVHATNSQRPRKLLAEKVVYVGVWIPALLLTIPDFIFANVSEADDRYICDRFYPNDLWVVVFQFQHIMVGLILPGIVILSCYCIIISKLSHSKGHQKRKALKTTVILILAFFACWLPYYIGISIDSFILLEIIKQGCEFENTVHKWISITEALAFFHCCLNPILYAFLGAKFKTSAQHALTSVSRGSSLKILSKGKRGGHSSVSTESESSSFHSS
Assay: Intracellular CXCL-12-induced calcium mobilization assay (FLIPR)
Conditions: U87.CXCR4 cells, CXCL-12 25-50 ng/mL; read-out: IC50 CXCL-12 Ca2+ flux U87.CXCR4+
pIC50: −log10 of the molar value.
Quantity: pIC50

Consider the reported pIC50 for these compounds:
| Compound | Quantity | Result |
| --- | --- | --- |
| CN1CCN(c2cccc3nc([C@@H]4CCC[C@H](c5ncccc5Cl)N4)cn23)CC1 (single isomer, unassigned) | pIC50 | 6.00 to 7.00 |
| CN1CCN(c2cccc3nc([C@H]4CCC[C@@H](c5ncccc5Cl)N4)cn23)CC12CC2 | pIC50 | ≤ 6.00 |
| CCN1CCN(c2cccc3nc([C@H]4CCC[C@@H](c5ncccc5C)N4C)c(Cl)n23)CC1 | pIC50 | 7.00 to 11.00 |
| Cc1cccnc1[C@@H]1CCC[C@H](c2cn3c(-c4ccncc4)cccc3n2)N1 | pIC50 | ≤ 6.00 |

Prompt: I would be grateful if you could share the reported pIC50 for `Cc1cccnc1[C@@H]1CCC[C@H](c2nc3ccccn3c2CN2CCN(C(C)C)CC2)N1C` .
Response: 6.00 to 7.00

Prompt: I would be grateful if you could share the reported pIC50 for `CC(C)c1cccnc1[C@@H]1CCC[C@H](c2cn3c(N4CCN(C)CC4)cccc3n2)N1C` .
Response: 6.00 to 7.00

Prompt: I would be grateful if you could share the reported pIC50 for `Cc1cccnc1[C@@H]1CCC[C@H](c2nc3cccc(N4CCN(C5CC5)CC4)n3c2Cl)N1C` .
Response: 6.00 to 7.00
